The origin of these recorded values is patent US20220125947A1.

# Test system: T1, T cell receptor (TCR) Vγ9 (TRGV9) (human, UniProt Q99603 21-122); note: test concentration or dose not given here
# T1 sequence (looked up): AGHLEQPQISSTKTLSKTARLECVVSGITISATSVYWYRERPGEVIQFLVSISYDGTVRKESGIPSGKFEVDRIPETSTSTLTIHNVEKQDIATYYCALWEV
# Protocol notes: cell-based or functional assay
Quick list: CD25+ (Vg9+ cells), flow staining per entry.
Parameter measured: CD25+ (Vg9+ cells), flow staining (%)

Binder	Recorded result
VG9B46 (antibody, human IgG1, kappa, V domains shown) VH: EVQLVESGGGLVKPGGSLRLSCEASGFTFSINSMNWVRQAPGKGLEWVSSISSTSDYIFNADSVKGRFTISRDNAKNSLYLQMNSLRAEDTAVYYCVRDDVFGAFDIWGQGTMVTVSS VL: EIVLTQSPGTLSLSPGERATLSCRTSQSVSRSYLGWYQQKPGQPPRLLIFGSSSRATGIPDRFSGSGSGTDFTLTISRLEPEDFAVYYCQQYSRSPLTFGGGTKVDIKR	37.9
VG9B121 (antibody, human IgG1, kappa, V domains shown) VH: EVQLVESGGGLVKPGGSLRLSCVASGFTFSDYAMDWVRQAPGKGLDWISSISSTSNYIFYADSVKGRFTISRDNAKNSLYLQMNSLRVEDSAVYYCANSYNWNYGGAFDIWGQGTMVTVSS VL: DIQMTQSPGTLSSSPGERATLSCRASQSVSSSYFAWYQQKPGRAPRLLIYGASSRATGIPDRFSGSGSGTDFTLTISRLEPEDFAVYFCQQYGRSPLTFGGGTKVEIKR	50.9
VG9B80 (antibody, human IgG1, kappa, V domains shown) VH: EVQLVQSGGGLVKSGGSLRLSCAASGFTFSTYSMNWVRQAPGKGLEWVSSISSSSSYIFYADSVKGRIIISRDNAKNSLYLQMNSVRADDTAVYYCAKDGELGVFDYWGQGTLVTVSS VL: EIVLTQSPGTLSLSAGERATLSCRASQSISSSYLAWYQQKPGQAPRVLIYGPSGRATGIPDRFRGSGSGTDFTLTISRLEPEDFAVYYCQQFGRSPLTFGGGTKVEIKR	49.6
VG9B195 (antibody, human IgG1, lambda, V domains shown) VH: EVQLVESGGGLVKPGGSLRLSCAASGFTFSPYTMNWVRQAPGKGLEWVSSISSSSSYMYYADSVKGRFTISRDNAKNSLYLQMNSLRAEDTAVYYCARDGDLVGPTYYFDYWGQGTLVTVSS VL: SYELMQPPSVSVSPGQTASITCSGDKLGDKYACWYQQKPGQSPVLVIYQHNKRPSGIPERFSGSNSGKTATLTISGTQAMDEADYYCQAWDSTTVVFGGGTKLTVLG	15.8
VG9B54 (antibody, human IgG1, kappa, V domains shown) VH: EVQLVESGGGLVKPGGSLRLSCAASGFAFSSYSLTWVRQAPGKGLEWVSSISSSSSYIFYADSVKGRFTISRDNAKNSLYLQMNSLRAEDTAVYYCATDGELGPFDYWGQGTTVTVSS VL: EIVMTQSPGTLSLSPGERATLSCRASQSVSSSYLAWFQQKPGQAPRRLIYGASSRATGIPDRFSGSGSGTDFTLTISRLEPEDFAVYYCQQYGRSPLTFGGGTKVEIKR	32.4
